Attribution: ChEMBL document CHEMBL1152178

Assay: Inhibition of bovine brain PDE1
Design: species or system Bos taurus
Below: a set of entries, each annotated with reported pIC50.
Scale explanation: pIC50 corresponds to minus log10 of a concentration expressed in moles per litre.

Worked set:
CC1(C)c2[nH]c3ccc(Cl)cc3c2C[C@@]23CN4CCC[C@]4(C[C@@H]12)C(=O)N3 4.22
CC1(C)c2[nH]c3ccc(Cl)c(Cl)c3c2C[C@@]23CN4CCC[C@]4(C[C@H]12)C(=O)N3 4.09

Consider the molecule `CC1(C)c2[nH]c3cc(Cl)ccc3c2C[C@@]23NC(=O)[C@]4(CCCN4C2=O)C[C@H]13` . State its measured pIC50. 4.37
